TEST_TARGET: T1, Dimeric fibrinogen-like domain of monkey (Macca fascicularis) Ang-2 conjugated to human IgG1 (monkey (Macca fascicularis))
T1 construct: also called Dimeric Monkey Ang-2FD; Monkey Ang-2FD-hFc
T1 sequence (chain, as listed by the source limits assumed): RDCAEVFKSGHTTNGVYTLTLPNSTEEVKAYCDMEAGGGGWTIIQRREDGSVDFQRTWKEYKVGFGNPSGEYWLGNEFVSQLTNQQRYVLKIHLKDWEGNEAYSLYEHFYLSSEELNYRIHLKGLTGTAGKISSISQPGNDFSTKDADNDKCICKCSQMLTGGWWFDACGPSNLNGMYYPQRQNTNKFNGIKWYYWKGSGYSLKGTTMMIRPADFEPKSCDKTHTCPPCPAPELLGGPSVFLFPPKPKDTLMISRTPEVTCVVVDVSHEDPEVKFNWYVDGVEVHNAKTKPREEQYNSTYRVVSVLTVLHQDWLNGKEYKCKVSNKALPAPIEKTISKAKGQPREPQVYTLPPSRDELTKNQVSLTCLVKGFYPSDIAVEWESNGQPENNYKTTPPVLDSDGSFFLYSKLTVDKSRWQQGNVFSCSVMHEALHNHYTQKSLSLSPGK
METHOD_DESCRIPTION: SPR, hIgG1 antibody captured, room temp
QUANTITY_NAME: T1/2 (min)
Numeric only. Scale: min

BINDER: H1H691P (antibody, V domains shown) VH: EVQLVESGGGLVQPGRSLRLSCAASGFTFDDYAMHWVRQAPGKGLEWVSGISWNSGDIGYADSVKGRFTISRDNAKNSLYLQMNSLRAQDTALYYCAKAYGDYYYFYGMDVWGQGTTVTVS VL: EIVLTQSPGTLSLSPGERATLSCRASQSVSSSYLAWYQQKPGQAPRLLIFSASSRATGIPDRFSGSGSGTDFTLTISRLEPEDFAVYYCQQYDNSLTFGGGTKVEIK
T1/2 / min: 41
//
BINDER: H1H704P (antibody, V domains shown) VH: QVQLVESGGDVVQPGRSLRLSCAASGFTFSSYGMHWVRQAPGKGLEWVAIIWYDGSNKYYADSVKGRFTISRDNSKNTLYLQMNSLRVEDTAVYSCARDFSISSRHFDYWGQGTLVTVSS VL: DIQMTQSPSSLSASVGDRVTITCRASQAINNYLAWFQQKPGKAPKSLIYATSNLQSGVPSQFSGSGSGTDYTLTISSLQPEDFATYYCQQYYIYPITFGQGTRLEIK
T1/2 / min: 33.5

Now for another entry.
Exercise: # lookup: T1/2 of H1H743N (antibody, V domains shown) VH: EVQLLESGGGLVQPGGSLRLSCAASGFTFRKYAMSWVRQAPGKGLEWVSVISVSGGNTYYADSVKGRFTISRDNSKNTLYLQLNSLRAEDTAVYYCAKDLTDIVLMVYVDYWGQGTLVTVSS VL: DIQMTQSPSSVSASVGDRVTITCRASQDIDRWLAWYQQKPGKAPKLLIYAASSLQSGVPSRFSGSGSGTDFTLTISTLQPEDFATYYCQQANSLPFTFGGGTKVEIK
Solution: 780
